EXPERIMENTAL_SYSTEM: T1, hexa-His-tagged 14-3-3ζ (UniProt P63104 1-245)
T1 construct: 14-3-3 protein zeta; expressed and purified essentially as in Kostelecky et al., 2009; eluted as a dimer of ~60 kDa; the ITC methods call it 'the 14-3-3ζ domain'; source: E. coli BL21(DE3) Star, purified (HisTrap, size-exclusion chromatography)
T1 sequence: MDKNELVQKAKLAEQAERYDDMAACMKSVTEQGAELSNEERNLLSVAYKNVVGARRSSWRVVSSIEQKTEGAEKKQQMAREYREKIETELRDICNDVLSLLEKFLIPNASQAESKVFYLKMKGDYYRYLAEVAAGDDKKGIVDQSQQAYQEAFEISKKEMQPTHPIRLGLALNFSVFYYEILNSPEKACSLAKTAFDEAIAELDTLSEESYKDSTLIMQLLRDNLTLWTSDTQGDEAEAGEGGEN
PROTOCOL_NOTES: BLI; Octet RED96; biotinylated peptides immobilised on streptavidin-coated biosensors (1 μg/ml, 300 s); dilution series of 14-3-3ζ for 300 s, dissociation 300 s; BI buffer 25 mM Tris, 150 mM NaCl, 0.1% Tween-20; data of a typical experiment (n ≥ 3)
MEASUREMENT_SETUP: both partners purified
pKd: −log10 of the molar value. Square brackets hold non-standard residues; d marks the D form. Ends that are not written are not given here. pS = N[C@@H](COP(=O)(O)O)C(=O)O
READOUT: pKd

State, in one line, measured pKd of EKKKPKKK[pS]C (not fully specified (N-terminus); also: biotinylated, Rap1A C-terminal peptide as Dm2 but without the geranylgeranyl modification; also called Rap1A+P-GG; nonmodified phosphopeptide; source: synthetic peptide) [Rap1A C-terminal peptide, phosphorylated, not geranylgeranylated (biotinylated)]
< 6.00

Data credit: paper PMC3690454
